From: ChEMBL document CHEMBL1629631

For each entry below, report its MIC50 value.
# Test system: Aspergillus terreus
# assay: Antimicrobial activity against Aspergillus terreus environmental isolate after 48 hrs by EUCAST test
# Type: functional
Numbered stars: 1 amine (or outer) side, 2 acyl side, 3 side chain; on linkers, the order of the positions; unused ones are H or OH. Bridge positions count the residues as written; N and C are the ends. Square brackets hold non-standard residues; d marks the D form. Peptide text beside a SMILES is read from it. * marks the point of attachment. hTyr(3S-OH,4S-OH,3'-OSO3H) = N[C@H](C(=O)O)[C@H](O)[C@@H](O)c1ccc(O)c(OS(=O)(=O)O)c1; pTerphenylCO(4''-OnC5H11) = CCCCCOc1ccc(-c2ccc(-c3ccc(C(=O)*)cc3)cc2)cc1; Orn(4R-OH,5R-OH) = O=C([C@H](C[C@@H](O)[C@@H](O)N[*:3])N[*:1])[*:2]; hTyr(3S-OH,4S-OH) = N[C@H](C(=O)O)[C@H](O)[C@@H](O)c1ccc(O)cc1; Pro(3S-OH,4S-Me) = C[C@H]1CN[C@H](C(=O)O)[C@H]1O; X1 = CCCCCOc1ccc(-c2cc(-c3ccc(C(=O)*)cc3)no2)cc1; Gln(3R-OH) = NC(=O)C[C@@H](O)[C@H](N)C(=O)O; Hyp = O=C(O)[C@@H]1C[C@@H](O)CN1
Only the number, expressed in µg/mL, is required.

Report MIC50 for C[C@@H](c1nc(-c2ccc(C#N)cc2)cs1)[C@](O)(Cn1cncn1)c1ccc(F)cc1F please. 1

Report MIC50 for CCCCCOc1ccc(-c2ccc(-c3ccc(C(=O)N[C@H]4C[C@@H](O)[C@@H](O)NC(=O)[C@@H]5[C@@H](O)[C@@H](C)CN5C(=O)[C@H]([C@@H](C)O)NC(=O)[C@H]([C@H](O)[C@@H](O)c5ccc(O)cc5)NC(=O)[C@@H]5C[C@@H](O)CN5C(=O)[C@H]([C@@H](C)O)NC4=O)cc3)cc2)cc1 [ANIDULAFUNGIN] ({pTerphenylCO(4''-OnC5H11)}-[Orn(4R-OH,5R-OH)]T[Hyp][hTyr(3S-OH,4S-OH)]T[Pro(3S-OH,4S-Me)]; lactam 1-C) please. 0.015

Report MIC50 for C[C@@H]1[C@H](O)[C@@H](C)/C=C/C=C/C=C/C=C/C=C/C=C/C=C/[C@H](O[C@@H]2O[C@H](C)[C@@H](O)[C@H](N)[C@@H]2O)C[C@@H]2O[C@](O)(C[C@@H](O)C[C@@H](O)[C@H](O)CC[C@@H](O)C[C@@H](O)CC(=O)O[C@H]1C)C[C@H](O)[C@H]2C(=O)O please. 2

Report MIC50 for CC[C@H](C)C[C@H](C)CCCCCCCCC(=O)N[C@H]1C[C@@H](O)[C@@H](NCCN)NC(=O)[C@@H]2[C@@H](O)CCN2C(=O)[C@H]([C@H](O)CCN)NC(=O)[C@H]([C@H](O)[C@@H](O)c2ccc(O)cc2)NC(=O)[C@@H]2C[C@@H](O)CN2C(=O)[C@H]([C@@H](C)O)NC1=O please. 1

Report MIC50 for CCCCCOc1ccc(-c2cc(-c3ccc(C(=O)N[C@H]4C[C@@H](O)[C@@H](O)NC(=O)[C@@H]5[C@@H](O)[C@@H](C)CN5C(=O)[C@H]([C@H](O)CC(N)=O)NC(=O)[C@H]([C@H](O)[C@@H](O)c5ccc(O)c(OS(=O)(=O)O)c5)NC(=O)[C@@H]5C[C@@H](O)CN5C(=O)[C@H]([C@@H](C)O)NC4=O)cc3)no2)cc1 [MICAFUNGIN] (X1-[Orn(4R-OH,5R-OH)]T[Hyp][hTyr(3S-OH,4S-OH,3'-OSO3H)][Gln(3R-OH)][Pro(3S-OH,4S-Me)]; lactam 1-C) please. 0.015
